- Test system: Hepatitis B virus
- MEASUREMENT_PROTOCOL: Antiviral activity against Hepatitis B virus infected in human HepG2(2.2.15) cells assessed as inhibition of viral DNA replication after 4 days by RT-PCR analysis
- Assay type: functional, organism-based
- MEASUREMENT_PARAMETERS: HepG2 2.2.15, 96 h
READOUT_NAME: pIC50
Keep in mind that pIC50 stands for -log10 of concentration in molar terms.

>  <ENTRY_SMILES>
C[N+](C)([O-])CCc1c[nH]c2ccc(Cl)cc12

>  <TARGET>
Hepatitis B virus

>  <REPORTED_MEASUREMENT>
5.08

$$$$
>  <ENTRY_SMILES>
c1csc(CN(CCc2c[nH]c3ccccc23)Cc2cccs2)c1

>  <TARGET>
Hepatitis B virus

>  <REPORTED_MEASUREMENT>
5.41

$$$$
>  <ENTRY_SMILES>
CC(C)CN(CCc1c[nH]c2ccccc12)CC(C)C

>  <TARGET>
Hepatitis B virus

>  <REPORTED_MEASUREMENT>
4.91

$$$$
>  <ENTRY_SMILES>
COc1cc(OC)c(OC)cc1CN(CCc1c[nH]c2ccccc12)Cc1cc(OC)c(OC)cc1OC

>  <TARGET>
Hepatitis B virus

>  <REPORTED_MEASUREMENT>
5.92

$$$$
>  <ENTRY_SMILES>
c1ccc(CN(CCc2c[nH]c3ccccc23)Cc2ccccc2)cc1

>  <TARGET>
Hepatitis B virus

>  <REPORTED_MEASUREMENT>
4.89

$$$$
>  <ENTRY_SMILES>
CC(C)CCN(CCc1c[nH]c2ccccc12)Cc1cccs1

>  <TARGET>
Hepatitis B virus

>  <REPORTED_MEASUREMENT>
5.00

$$$$

Now let's try a different one.
// query Missing value: pIC50, Hepatitis B virus, entry C[N+](C)([O-])CCc1c[nH]c2ccccc12 . Fill in?
// result 4.75

###

- Tested on: Hepatitis B virus
- MEASUREMENT_PROTOCOL: Antiviral activity against Hepatitis B virus infected in human HepG2(2.2.15) cells assessed as inhibition of viral DNA replication after 4 days by RT-PCR analysis
- Assay type: functional, organism-based
- MEASUREMENT_PARAMETERS: HepG2 2.2.15, 96 h
API: label(entry) gives TRUE if the entry's IC50 is strictly smaller than 5 µM; on equality or larger values it gives FALSE.

>  <ENTRY_SMILES>
c1coc(CN(CCc2c[nH]c3ccccc23)Cc2ccco2)c1

>  <CLASSIFICATION>
TRUE

$$$$
>  <ENTRY_SMILES>
CC(C)CCN(CCc1c[nH]c2ccccc12)CCC(C)C

>  <CLASSIFICATION>
TRUE

$$$$
>  <ENTRY_SMILES>
CC[N+]([O-])(CC)CCc1c[nH]c2ccccc12

>  <CLASSIFICATION>
FALSE

$$$$

Now look at this entry.
// query In the record for CCN(CC)CCc1c[nH]c2ccccc12 , is IC50 less than 5 µM?
// result FALSE

###

- System: Hepatitis B virus
- MEASUREMENT_PROTOCOL: Antiviral activity against Hepatitis B virus infected in human HepG2(2.2.15) cells assessed as inhibition of viral DNA replication after 4 days by RT-PCR analysis
- Format: functional, organism-based
- MEASUREMENT_PARAMETERS: HepG2 2.2.15, 96 h
READOUT_NAME: IC50

>  <ENTRY_SMILES>
CCCN(CCc1c[nH]c2ccccc12)CCC(C)C

>  <IC50>
20 µM

$$$$
>  <ENTRY_SMILES>
[O-][N+](CCc1c[nH]c2ccccc12)(CC1CCCCC1)CC1CCCCC1

>  <IC50>
> 100 µM

$$$$
>  <ENTRY_SMILES>
[O-][N+](CCc1c[nH]c2ccccc12)(Cc1ccco1)Cc1ccco1

>  <IC50>
7.5 µM

$$$$
>  <ENTRY_SMILES>
CC(C)CCN(CCc1c[nH]c2ccccc12)CC(C)C

>  <IC50>
1.1 µM

$$$$
>  <ENTRY_SMILES>
[O-][N+](CCc1c[nH]c2ccccc12)(CC1CC1)CC1CC1

>  <IC50>
> 100 µM

$$$$

// query Given CC(C)C[N+]([O-])(CCc1c[nH]c2ccccc12)CC(C)C , state its recorded IC50.
// result > 100 µM

// query Given CC(C)CCN(CCc1cn(S(=O)(=O)c2ccccc2)c2ccccc12)CCC(C)C , state its recorded IC50.
// result > 25 µM

// query Given [O-][N+](CCc1c[nH]c2ccccc12)(Cc1ccccn1)Cc1ccccn1 , state its recorded IC50.
// result > 100 µM
